target: Recombinant human PDGF-BB (human, UniProt P01127 82-190); test: cell-based or functional assay
Sequence (P01127 82-190 limits assumed): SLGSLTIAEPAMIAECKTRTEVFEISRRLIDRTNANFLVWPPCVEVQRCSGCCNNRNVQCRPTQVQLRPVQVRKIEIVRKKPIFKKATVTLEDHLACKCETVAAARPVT
Experimental Endpoint: IC50 of inhibition of NIH-3T3 cell proliferation (WST-1) (nM)
Unit nM implied. Number only.

{"Binder": "DARPin #30 (designed binder) MRGSHHHHHHGSDLGKKLLEAARAGQDDEVRELLKAGADVNAKDEEGTTPLHYAAVYGHLEIVEVLLKAGADVNAQDIYGATPADLAALVGHEDIAEVLQKLN", "Recorded Number": 3.2}

### Prompt Please give the measured IC50 of inhibition of NIH-3T3 cell proliferation (WST-1) for this binder: DARPin #49 (designed binder) MRGSHHHHHHGSDLGKKLLEAARAGQDDEVRILMANGADVNAQDLNGQTPLHLAADIGHLEIVEVLLKHGADVNAQDYAGSTPLRLAAWAGHLEIVEVLLKNGADVNANDYFGYTPLHLAAYFGHLEIVDVLLKHGADVNAQDKFGKTAFDISIDNGNEDLAEILQKLN
### Response 1.9
